Origin of values: ChEMBL document CHEMBL4190346

# Test system: HeLa
# test: Cytotoxicity against human HeLa cells assessed as reduction in cell viability using compound addition to cell culture cells in log phase of growth and incubated for 48 hrs by MTT assay
# Assay type: functional, cell-based
# test.parameters: Homo sapiens, HeLa, 48 h; read-out: IC50
assay.endpoint: pIC50
Please report pIC50 as the negative decimal logarithm of the molar concentration, giving only the number.

Task item: // map CC1=C(COC(=O)CBr)C(=O)O[C@@H]([C@@H](C)[C@H]2CC[C@H]3[C@@H]4C[C@H]5O[C@]56[C@@H](O)C=CC(=O)[C@]6(C)[C@H]4CC[C@]23C)C1 to recorded pIC50 (system: HeLa)
Reply: 5.31

Task item: Query for HeLa: what pIC50 does the record show for CC1=C(COC(=O)c2ccc(Br)cc2)C(=O)O[C@@H]([C@@H](C)[C@H]2CC[C@H]3[C@@H]4C[C@H]5O[C@]56[C@@H](O)C=CC(=O)[C@]6(C)[C@H]4CC[C@]23C)C1 ?
Reply: 5.42

Task item: Lookup: pIC50 / HeLa / CC1=C(CO)C(=O)O[C@@H]([C@@H](C)[C@H]2CC[C@H]3[C@@H]4C[C@H]5O[C@]56[C@@H](O)C=CC(=O)[C@]6(C)[C@H]4CC[C@]23C)C1
Reply: 5.20

Task item: Item: CC1=C(COC(=O)C(C)(C)C)C(=O)O[C@@H]([C@@H](C)[C@H]2CC[C@H]3[C@@H]4C[C@H]5O[C@]56[C@@H](OC(=O)C(C)(C)C)C=CC(=O)[C@]6(C)[C@H]4CC[C@]23C)C1 Test system: HeLa Read-out: pIC50 Value: ?
Reply: 5.62

Task item: Which measured pIC50 belongs to CC1=C(COC(=O)C(C)(C)C)C(=O)O[C@@H]([C@@H](C)[C@H]2CC[C@H]3[C@@H]4C[C@H]5O[C@]56[C@@H](O)C=CC(=O)[C@]6(C)[C@H]4CC[C@]23C)C1 , tested on HeLa?
Reply: 5.77

Task item: Please provide the recorded pIC50 for CC1=C(CO[Si](C)(C)C(C)(C)C)C(=O)O[C@@H]([C@@H](C)[C@H]2CC[C@H]3[C@@H]4C[C@H](O)[C@]5(O)[C@@H](O)C=CC(=O)[C@]5(C)[C@H]4CC[C@]23C)C1 , tested on HeLa.
Reply: 4.92

Task item: Form field - read-out: pIC50; system: HeLa; submitted item: CC1=C(CO)C(=O)O[C@@H]([C@@H](C)[C@H]2CC[C@H]3[C@@H]4C[C@H]5O[C@]56[C@@H](O)C=C[C@@H](O)[C@]6(C)[C@H]4CC[C@]23C)C1
Reply: 4.76

Task item: Value wanted: pIC50 (HeLa) of entry COc1ccc(C(=O)OCC2=C(C)C[C@H]([C@@H](C)[C@H]3CC[C@H]4[C@@H]5C[C@H](Cl)[C@]6(O)[C@@H](O)C=CC(=O)[C@]6(C)[C@H]5CC[C@]34C)OC2=O)cc1
Reply: 4.42

Task item: What is its pIC50 for HeLa? Entry: CCC(=O)OCC1=C(C)C[C@H]([C@@H](C)[C@H]2CC[C@H]3[C@@H]4C[C@H]5O[C@]56[C@@H](OC(=O)CC)C=CC(=O)[C@]6(C)[C@H]4CC[C@]23C)OC1=O
Reply: 5.96
